Reported Emax values for the following molecules.
target: recombinant full-length P1R (Homo sapiens); construct: expressed in transfected cells; assay: cAMP stimulation in HKRK-B28 cells; type: cell-based; details: percent of maximum response of PTH(1-14), Table 3
Sequence (Q03431 27-593): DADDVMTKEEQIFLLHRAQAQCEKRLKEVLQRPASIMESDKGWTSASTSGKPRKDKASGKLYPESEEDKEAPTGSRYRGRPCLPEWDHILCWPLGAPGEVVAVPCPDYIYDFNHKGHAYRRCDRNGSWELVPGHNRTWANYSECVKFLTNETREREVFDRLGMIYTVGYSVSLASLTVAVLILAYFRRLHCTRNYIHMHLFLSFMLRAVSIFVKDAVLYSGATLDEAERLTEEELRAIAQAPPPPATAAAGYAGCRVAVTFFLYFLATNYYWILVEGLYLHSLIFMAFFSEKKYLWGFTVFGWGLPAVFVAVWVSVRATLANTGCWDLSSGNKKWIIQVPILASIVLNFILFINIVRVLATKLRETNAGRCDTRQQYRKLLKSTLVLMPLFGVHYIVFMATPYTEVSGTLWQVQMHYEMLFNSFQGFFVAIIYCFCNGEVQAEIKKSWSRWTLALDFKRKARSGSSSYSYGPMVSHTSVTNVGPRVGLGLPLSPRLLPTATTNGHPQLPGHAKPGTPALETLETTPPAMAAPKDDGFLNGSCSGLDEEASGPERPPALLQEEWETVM
Positions of bridges follow the written chain, without caps; N, C: chain ends. Non-standard residues stand in square brackets, D forms with d. Residues, ends and D or L forms follow the SMILES beside them. hArg = N=C(N)NCCCC[C@H](N)C(=O)O
Response body: numeric value in %, unit text excluded.

Examples with their reported Emax follow.
CC[C@H](C)[C@H](NC(=O)[C@H](CCC(=O)O)NC(=O)[C@H](C)NC(=O)[C@@H](NC(=O)[C@H](C)N)C(C)C)C(=O)N[C@H]1CCCCNC(=O)CC[C@@H](C(=O)N[C@@H](CCCCNC(=N)N)C(=O)N[C@@H](C)C(=O)N[C@@H](CCCCN)C(=O)N[C@@H](Cc2c[nH]c3ccccc23)C(N)=O)NC(=O)[C@H](Cc2c[nH]cn2)NC(=O)[C@H](CCSC)NC(=O)[C@H](CC(C)C)NC1=O [[(Lys^6, Glu^10)lac.]PTH(1-14)] (H-AVAEIKLMHE[hArg]AKW-NH2; lactam 6-10) = 59
CC[C@H](C)[C@H](NC(=O)[C@H](CCC(=O)O)NC(=O)[C@H](C)NC(=O)[C@@H](NC(=O)[C@H](C)N)C(C)C)C(=O)N[C@@H](CCC(N)=O)C(=O)N[C@@H](CC(C)C)C(=O)N[C@@H](CCSC)C(=O)N[C@@H](Cc1c[nH]cn1)C(=O)N[C@@H](CCC(N)=O)C(=O)N[C@@H](CCCCNC(=N)N)C(=O)N[C@@H](C)C(=O)N[C@@H](CCCCN)C(=O)N[C@@H](Cc1c[nH]c2ccccc12)C(N)=O [PTH(1-14) (SEQ. ID. NO. 11)] (H-AVAEIQLMHQ[hArg]AKW-NH2) = 100
CC[C@H](C)[C@H](NC(=O)[C@H](CCC(=O)O)NC(=O)[C@H](C)NC(=O)[C@@H](NC(=O)[C@H](C)N)C(C)C)C(=O)N[C@@H](CCCCN)C(=O)N[C@@H](CC(C)C)C(=O)N[C@@H](CCSC)C(=O)N[C@@H](Cc1c[nH]cn1)C(=O)N[C@@H](CCC(=O)O)C(=O)N[C@@H](CCCCNC(=N)N)C(=O)N[C@@H](C)C(=O)N[C@@H](CCCCN)C(=O)N[C@@H](Cc1c[nH]c2ccccc12)C(N)=O [[Lys^6, Glu^10]PTH(1-14)] (H-AVAEIKLMHE[hArg]AKW-NH2) = 37
CC[C@H](C)[C@H](NC(=O)[C@H](CCC(=O)O)NC(=O)[C@H](C)NC(=O)[C@@H](NC(=O)[C@H](C)N)C(C)C)C(=O)N[C@@H](CCC(=O)O)C(=O)N[C@@H](CC(C)C)C(=O)N[C@@H](CCSC)C(=O)N[C@@H](Cc1c[nH]cn1)C(=O)N[C@@H](CCCCN)C(=O)N[C@@H](CCCCNC(=N)N)C(=O)N[C@@H](C)C(=O)N[C@@H](CCCCN)C(=O)N[C@@H](Cc1c[nH]c2ccccc12)C(N)=O [[Glu^6, Lys^10]PTH(1-14)] (H-AVAEIELMHK[hArg]AKW-NH2) = 52

Please look at the following molecule next.
Exercise: # query: Emax of entry CC[C@H](C)[C@H](NC(=O)[C@H](CCC(=O)O)NC(=O)[C@H](C)NC(=O)[C@@H](NC(=O)[C@H](C)N)C(C)C)C(=O)N[C@H]1CCC(=O)NCCCC[C@@H](C(=O)N[C@@H](CCCCNC(=N)N)C(=O)N[C@@H](C)C(=O)N[C@@H](CCCCN)C(=O)N[C@@H](Cc2c[nH]c3ccccc23)C(N)=O)NC(=O)[C@H](Cc2c[nH]cn2)NC(=O)[C@H](CCSC)NC(=O)[C@H](CC(C)C)NC1=O [[(Glu^6, Lys^10)lac.]PTH(1-14)] (H-AVAEIELMHK[hArg]AKW-NH2; lactam 6-10)
Key: 52
